# System: T-47D breast
# method: NCI-60 one-dose screen, 48 h (100 = growth as untreated, 0 = no growth, -100 = all killed)
# experimental conditions: 10 µM unless noted
This is part of a sample that, as a whole, favours compounds with a hit. Of some 83,000 tested, about 20% had one in any assay.

compound | growth (%)
C=C1CCc2nc(SCC(=O)O)ccc2N1 | 98.5
O=C(N/N=C/c1cc2ccccc2nc1Cl)c1cc(-c2nc3ccccc3[nH]2)nc2ccccc12 | 67.5
Cc1cc2nc(C(Cl)Cl)nc(-c3ccc(S(=O)(=O)N(C)C)cc3)n2n1 | 69.8
COc1cc(-c2nc(-c3ccccc3)[nH]c2-c2ccnc(NCCCNS(=O)(=O)c3ccc(C)cc3)n2)ccc1F | 57.3
C=C(C)[C@@H]1CC[C@]2(COCCCNCCCN)CC[C@]3(C)[C@H](CC[C@@H]4[C@@]5(C)CC[C@H](O)C(C)(C)[C@@H]5CC[C@]43C)[C@@H]12 | -53.3
CC(C)NC(=O)c1cc(-c2ccc(NC(=O)Nc3ccc(F)c(C(F)(F)F)c3)cc2)nc2cccnc12 | 80.3
Cc1csc(/N=C(N)/N=C(\N)c2cccnc2)n1 | 85.5
COc1cc2oc(-c3cccc(NC(=O)[C@@H](N)C(C)C)c3)cc(=O)c2c(OC)c1OC | 87.3
Cc1ccc(NC(=O)/C=C/c2ccc(OCCCOc3ccc4c(C)cc(=O)oc4c3)cc2)cc1 | 70.3
COc1ccc(-c2cnc(NC(=O)CCCCCCNC(=O)C(O)(O)C(F)(F)F)s2)cc1 | 0.87
CN1CCN(c2ccc(Nc3nc(NCCCNS(=O)(=O)c4ccc(F)cc4)c4sccc4n3)cc2)CC1 | 29.8
O=C1[C@@H]2Cc3c([nH]c4ccccc34)[C@@H](c3ccc(Cl)cc3)N2C(=O)CN1C1CCN(Cc2c(F)cccc2F)CC1 | 56.8
C#Cc1nc(/C=C/CCCCCCC(=O)NO)cs1 | 51.6
C#Cc1nc(/C=C/C(=O)NO)cs1 | 67.9
COc1cc(/C=C2/C(=O)Nc3ccc(Cl)cc32)ccc1OCc1ccc(Cl)cc1 | 80.5
CC(=O)OCCCCN1C=C/C(=C\C(=O)n2ccc3ccccc32)c2ccccc21 | 92.7
COc1ccc2c(c1)c(-c1nc(N)nnc1-c1c[nH]c3ccccc13)cn2C | 41.2
O=C(NNc1nc2cc(F)cc(F)c2n2cccc12)c1cccnn1 | 9.21
COC(=O)c1ccc(NC2=C(Cl)C(=O)C(C)=C(C)C2=O)cc1 | -25.9
O=c1c2cc(-c3ccc(F)cc3F)ccc2n(O)c(=O)n1-c1cccc(C(F)(F)F)c1 | -15.9
O=C(CSc1nc2ccccc2c(=O)n1-c1ccc(Cl)c(Cl)c1)Nc1ccc(S(=O)(=O)Nc2ccc(Cl)nn2)cc1 | 85.9
O=C(Nc1cccc(C(F)(F)F)c1)N1CCN(c2cc(-c3cn(-c4ccccc4)nc3-c3cccc(O)c3)ccn2)CC1 | -5.55
C#C[C@]1(O)CC[C@H]2[C@@H]3CC=C4c5sc(Nc6cc(Cl)ccc6OC)nc5CC[C@]4(C)[C@H]3CC[C@@]21C | 31.2
CCCNNC(=O)c1ccc(-c2ccc(NC(=O)CCCCCCC(=O)N[C@H](C(=O)N3C[C@H](O)C[C@H]3C(=O)N[C@@H](C)c3ccc(-c4scnc4C)cc3)C(C)(C)C)cc2)cc1 | 9.23
O=C(CCCCCC/C=C\c1csc(Br)n1)NO | 76.3
CN1CCN(Cc2ccc(NC(=O)c3cncc(C#Cc4cnc5ccc(OC6CCOCC6)nn45)c3)cc2C(F)(F)F)CC1 | -56.1
CN1CCN(c2ccc(C(=O)/C=C/c3cc(F)cc(C(F)(F)F)c3)cc2)CC1 | 51.9
O=C(/C=C/c1cc(Cl)ccc1Cl)Nc1ncc(Cc2ccc(Cl)cc2)s1 | 63.8
CCc1cc(OC(=O)N2CCC(N3CCCCC3)CC2)ccc1Nc1cc(-c2ccc(-n3cccn3)cc2)[nH]n1 | 97.2
O=C(CSc1nc2ccccc2c(=O)n1-c1ccccc1)N/N=C/c1ccc(Oc2ccc(Br)cc2)cc1 | 82.4
Cc1ccc(S(=O)(=O)NCCCNc2nc(Nc3ccc(N4CCN(C)CC4)cc3)nc3ccsc23)cc1 | 17.2
Cc1ccc(C(=O)CSc2nc3ccccc3c(=O)n2C)cc1 | 76.2
OCC(Nc1ncnc2ccc(-c3cnc4cnccn34)cc12)c1ccccc1 (configuration not stated) | 28.4
N#Cc1c(-c2cccs2)c(C#N)c(=O)n(Cc2nc3ccccc3[nH]2)c1N | 74.8
C=C(C=O)[C@@H]1CC[C@]2(C(=O)O)CC[C@]3(C)C(CC[C@@H]4[C@@](C)(CCC#N)[C@H](C(=C)C=O)CC[C@]43C)[C@@H]12 (some centres not stated) | 28.1
Cc1ccc([C@H]2c3[nH]c4ccccc4c3C[C@H]3C(=O)N(CCCCCCC(=O)NO)CC(=O)N23)s1 | 37.3
CN1CCN(Cc2ccc(NC(=O)c3cncc(C#Cc4cnc5ccc(OCC(F)F)nn45)c3)cc2C(F)(F)F)CC1 | 8.64
